Values compiled from patent US10696707B2.

Test system: A. flavus ATCC204304
Assay: Antifungal activity test, MIC by broth microdilution (CLSI M38-A2)
Type: cell-based
Conditions: Aspergillus flavus; A. flavus ATCC204304; broth microdilution, 35° C., 24-48 hours, 100% inhibition; read-out: MIC
Measure: MIC (mg/L)

INSERT INTO assay_data (molecule, assay_value) VALUES
  ('C[C@@H]1[C@H](O)[C@@H](C)/C=C/C=C/C=C/C=C/C=C/C=C/C=C/[C@H](O[C@@H]2O[C@H](C)[C@@H](O)[C@H](N)[C@@H]2O)C[C@@H]2O[C@](O)(C[C@@H](O)C[C@@H](O)[C@H](O)CC[C@@H](O)C[C@@H](O)CC(=O)O[C@H]1C)C[C@H](O)[C@H]2NC(=O)NOCC(=O)O', 0.5),
  ('CC(=O)NNC(=O)N[C@H]1[C@@H]2C[C@@H](O[C@@H]3O[C@H](C)[C@@H](O)[C@H](N)[C@@H]3O)/C=C/C=C/C=C/C=C/C=C/C=C/C=C/[C@H](C)[C@@H](O)[C@@H](C)[C@H](C)OC(=O)C[C@H](O)C[C@H](O)CC[C@@H](O)[C@H](O)C[C@H](O)C[C@](O)(C[C@@H]1O)O2', 1),
  ('C[C@@H]1[C@H](O)[C@@H](C)/C=C/C=C/C=C/C=C/C=C/C=C/C=C/[C@H](O[C@@H]2O[C@H](C)[C@@H](O)[C@H](N)[C@@H]2O)C[C@@H]2O[C@](O)(C[C@@H](O)C[C@@H](O)[C@H](O)CC[C@@H](O)C[C@@H](O)CC(=O)O[C@H]1C)C[C@H](O)[C@H]2NC(=O)NNC[C@@H](O)C(=O)O', 0.5),
  ('CNC(=O)N[C@H]1[C@@H]2C[C@@H](O[C@@H]3O[C@H](C)[C@@H](O)[C@H](N)[C@@H]3O)/C=C/C=C/C=C/C=C/C=C/C=C/C=C/[C@H](C)[C@@H](O)[C@@H](C)[C@H](C)OC(=O)C[C@H](O)C[C@H](O)CC[C@@H](O)[C@H](O)C[C@H](O)C[C@](O)(C[C@@H]1O)O2 [AmBMU, reference compound]', 1),
  ('C[C@@H]1[C@H](O)[C@@H](C)/C=C/C=C/C=C/C=C/C=C/C=C/C=C/[C@H](O[C@@H]2O[C@H](C)[C@@H](O)[C@H](N)[C@@H]2O)C[C@@H]2O[C@](O)(C[C@@H](O)C[C@@H](O)[C@H](O)CC[C@@H](O)C[C@@H](O)CC(=O)O[C@H]1C)C[C@H](O)[C@H]2NC(=O)NNC(CO)CO', 0.5),
  ('CONC(=O)N[C@H]1[C@@H]2C[C@@H](O[C@@H]3O[C@H](C)[C@@H](O)[C@H](N)[C@@H]3O)/C=C/C=C/C=C/C=C/C=C/C=C/C=C/[C@H](C)[C@@H](O)[C@@H](C)[C@H](C)OC(=O)C[C@H](O)C[C@H](O)CC[C@@H](O)[C@H](O)C[C@H](O)C[C@](O)(C[C@@H]1O)O2', 1),
  ('C[C@@H]1[C@H](O)[C@@H](C)/C=C/C=C/C=C/C=C/C=C/C=C/C=C/[C@H](O[C@@H]2O[C@H](C)[C@@H](O)[C@H](N)[C@@H]2O)C[C@@H]2O[C@](O)(C[C@@H](O)C[C@@H](O)[C@H](O)CC[C@@H](O)C[C@@H](O)CC(=O)O[C@H]1C)C[C@H](O)[C@H]2NC(=O)NCCC(=O)O [AmBCU, reference compound]', 1),
  ('C[C@@H]1[C@H](O)[C@@H](C)/C=C/C=C/C=C/C=C/C=C/C=C/C=C/[C@H](O[C@@H]2O[C@H](C)[C@@H](O)[C@H](N)[C@@H]2O)C[C@@H]2O[C@](O)(C[C@@H](O)C[C@@H](O)[C@H](O)CC[C@@H](O)C[C@@H](O)CC(=O)O[C@H]1C)C[C@H](O)[C@H]2NC(N)=O', 1),
  ('C[C@@H]1[C@H](O)[C@@H](C)/C=C/C=C/C=C/C=C/C=C/C=C/C=C/[C@H](O[C@@H]2O[C@H](C)[C@@H](O)[C@H](N)[C@@H]2O)C[C@@H]2O[C@](O)(C[C@@H](O)C[C@@H](O)[C@H](O)CC[C@@H](O)C[C@@H](O)CC(=O)O[C@H]1C)C[C@H](O)[C@H]2NC(=O)NC(CO)CO', 0.5),
  ('C[C@@H]1[C@H](O)[C@@H](C)/C=C/C=C/C=C/C=C/C=C/C=C/C=C/[C@H](O[C@@H]2O[C@H](C)[C@@H](O)[C@H](N)[C@@H]2O)C[C@@H]2O[C@](O)(C[C@@H](O)C[C@@H](O)[C@H](O)CC[C@@H](O)C[C@@H](O)CC(=O)O[C@H]1C)C[C@H](O)[C@H]2NC(=O)N1C[C@@H](O)[C@H](O)C1', 0.5),
  ('C[C@@H]1[C@H](O)[C@@H](C)/C=C/C=C/C=C/C=C/C=C/C=C/C=C/[C@H](O[C@@H]2O[C@H](C)[C@@H](O)[C@H](N)[C@@H]2O)C[C@@H]2O[C@](O)(C[C@@H](O)C[C@@H](O)[C@H](O)CC[C@@H](O)C[C@@H](O)CC(=O)O[C@H]1C)C[C@H](O)[C@H]2NC(=O)N1C[C@@](O)(C(=O)O)[C@@](O)(C(=O)O)C1', 1);
